organism: Rattus norvegicus; assay: Open TG-GATES - Regimen: Daily Repeat; format: toxicity, organism-based, Sprague-Dawley; design: regimen Daily Repeat, gender Male, age 6 weeks; settings: in vivo, po, 0 mg/kg, 72 h, tissue Plasma, route gavage, dose level Control, time 3 day
Values of ALT strictly less than 40 IU/L map to fulfilled, and values of at least 40 IU/L map to not fulfilled.

{"COMPOUND": "Cn1cnc([N+](=O)[O-])c1Sc1ncnc2nc[nH]c12 [AZATHIOPRINE]", "CATEGORY_LABEL": "not fulfilled"}
{"COMPOUND": "Cc1cccc(Nc2cc(Cl)nc(SCC(=O)O)n2)c1C [PIRINIXIC ACID]", "CATEGORY_LABEL": "not fulfilled"}
{"COMPOUND": "Cc1cnc(NC(=O)C2=C(O)c3ccccc3S(=O)(=O)N2C)s1 [MELOXICAM]", "CATEGORY_LABEL": "not fulfilled"}
{"COMPOUND": "O=C1CN(/N=C/c2ccc(-c3ccc([N+](=O)[O-])cc3)o2)C(O)=N1 [DANTROLENE]", "CATEGORY_LABEL": "fulfilled"}

---

species: Rattus norvegicus; assay: Open TG-GATES - Regimen: Daily Repeat; type: toxicity, organism-based, Sprague-Dawley; set-up: regimen Daily Repeat, gender Male, age 6 weeks; conditions: in vivo, po, 0 mg/kg, 72 h, tissue Plasma, route gavage, dose level Control, time 3 day
Please use 1 for TBIL under 0.2 mg/dL and -1 for everything else, ties included.

{"COMPOUND": "Cn1c(=O)c2c(ncn2C)n(C)c1=O", "CATEGORY_LABEL": 1}
{"COMPOUND": "Cc1cccc(Nc2cc(Cl)nc(SCC(=O)O)n2)c1C", "CATEGORY_LABEL": 1}
{"COMPOUND": "O=P1(N(CCCl)CCCl)NCCCO1 (stereo unspecified) [CYCLOPHOSPHAMIDE ANHYDROUS]", "CATEGORY_LABEL": 1}
{"COMPOUND": "CS(=O)(=O)Nc1ccc([N+](=O)[O-])cc1Oc1ccccc1 [NIMESULIDE]", "CATEGORY_LABEL": -1}
{"COMPOUND": "O=C1CN(/N=C/c2ccc(-c3ccc([N+](=O)[O-])cc3)o2)C(O)=N1", "CATEGORY_LABEL": -1}
{"COMPOUND": "O=C1NC(=O)C(c2ccccc2)(c2ccccc2)N1", "CATEGORY_LABEL": 1}
{"COMPOUND": "C=CCO", "CATEGORY_LABEL": 1}
{"COMPOUND": "COc1ccc(O)c(C(C)(C)C)c1.COc1ccc(O)cc1C(C)(C)C [BUTYLATED HYDROXYANISOLE]", "CATEGORY_LABEL": 1}
{"COMPOUND": "Cn1cnc([N+](=O)[O-])c1Sc1ncnc2nc[nH]c12", "CATEGORY_LABEL": 1}

---

Quick reference: gamma-GTP of the listed items.
species: Rattus norvegicus; assay: Open TG-GATES - Regimen: Daily Repeat; type: toxicity, organism-based, Sprague-Dawley; design: regimen Daily Repeat, gender Male, age 6 weeks; details: in vivo, po, 0 mg/kg, 72 h, tissue Plasma, route gavage, dose level Control, time 3 day

{"MOLECULE": "Cc1cccc(Nc2cc(Cl)nc(SCC(=O)O)n2)c1C", "QUANTITY_UNIT": "IU/L", "gamma-GTP": 1.6}
{"MOLECULE": "COc1ccc(O)c(C(C)(C)C)c1.COc1ccc(O)cc1C(C)(C)C [BUTYLATED HYDROXYANISOLE]", "QUANTITY_UNIT": "IU/L", "gamma-GTP": 1}
{"MOLECULE": "Cn1c(=O)c2c(ncn2C)n(C)c1=O", "QUANTITY_UNIT": "IU/L", "gamma-GTP": 1.4}
{"MOLECULE": "O=P1(N(CCCl)CCCl)NCCCO1 (stereo unspecified) [CYCLOPHOSPHAMIDE ANHYDROUS]", "QUANTITY_UNIT": "IU/L", "gamma-GTP": 1}
{"MOLECULE": "Cn1cnc([N+](=O)[O-])c1Sc1ncnc2nc[nH]c12", "QUANTITY_UNIT": "IU/L", "gamma-GTP": 1}
{"MOLECULE": "CS(=O)(=O)Nc1ccc([N+](=O)[O-])cc1Oc1ccccc1 [NIMESULIDE]", "QUANTITY_UNIT": "IU/L", "gamma-GTP": 1.4}
{"MOLECULE": "Cc1cnc(NC(=O)C2=C(O)c3ccccc3S(=O)(=O)N2C)s1", "QUANTITY_UNIT": "IU/L", "gamma-GTP": 1}
{"MOLECULE": "C=CCO", "QUANTITY_UNIT": "IU/L", "gamma-GTP": 0.8}
{"MOLECULE": "O=C1NC(=O)C(c2ccccc2)(c2ccccc2)N1", "QUANTITY_UNIT": "IU/L", "gamma-GTP": 1}
{"MOLECULE": "O=C1CN(/N=C/c2ccc(-c3ccc([N+](=O)[O-])cc3)o2)C(O)=N1", "QUANTITY_UNIT": "IU/L", "gamma-GTP": 1}
{"MOLECULE": "COc1ccc(Cl)cc1C(=O)NCCc1ccc(S(=O)(=O)NC(=O)NC2CCCCC2)cc1 [GLYBURIDE]", "QUANTITY_UNIT": "IU/L", "gamma-GTP": 1.4}

---

Overview of recorded CRE for various compounds
species on record: Rattus norvegicus; experiment: Open TG-GATES - Regimen: Single; format: toxicity, organism-based, Sprague-Dawley; set-up: regimen Single, gender Male, age 6 weeks; details: in vivo, po, 0 mg/kg, 6 h, tissue Plasma, route gavage, dose level Control

{"COMPOUND": "S=C=Nc1cccc2ccccc12 [1-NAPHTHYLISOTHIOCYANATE]", "QUANTITY_UNIT": "mg/dL", "CRE": 0.4}
{"COMPOUND": "COc1ccc(O)c(C(C)(C)C)c1.COc1ccc(O)cc1C(C)(C)C [BUTYLATED HYDROXYANISOLE]", "QUANTITY_UNIT": "mg/dL", "CRE": 0.2}
{"COMPOUND": "O=C1CN(/N=C/c2ccc(-c3ccc([N+](=O)[O-])cc3)o2)C(O)=N1 [DANTROLENE]", "QUANTITY_UNIT": "mg/dL", "CRE": 0.5}
{"COMPOUND": "Cn1cnc([N+](=O)[O-])c1Sc1ncnc2nc[nH]c12 [AZATHIOPRINE]", "QUANTITY_UNIT": "mg/dL", "CRE": 0.1}
{"COMPOUND": "Cc1cnc(NC(=O)C2=C(O)c3ccccc3S(=O)(=O)N2C)s1 [MELOXICAM]", "QUANTITY_UNIT": "mg/dL", "CRE": 0.3}
{"COMPOUND": "COc1ccc(Cl)cc1C(=O)NCCc1ccc(S(=O)(=O)NC(=O)NC2CCCCC2)cc1 [GLYBURIDE]", "QUANTITY_UNIT": "mg/dL", "CRE": 0.4}
{"COMPOUND": "C=CCO [ALLYL ALCOHOL]", "QUANTITY_UNIT": "mg/dL", "CRE": 0.4}
{"COMPOUND": "CS(=O)(=O)Nc1ccc([N+](=O)[O-])cc1Oc1ccccc1 [NIMESULIDE]", "QUANTITY_UNIT": "mg/dL", "CRE": 0.6}
{"COMPOUND": "O=C1NC(=O)C(c2ccccc2)(c2ccccc2)N1 [PHENYTOIN]", "QUANTITY_UNIT": "mg/dL", "CRE": 0.2}
{"COMPOUND": "CNCCC(Oc1ccc(C(F)(F)F)cc1)c1ccccc1.Cl (stereo unspecified) [FLUOXETINE HYDROCHLORIDE]", "QUANTITY_UNIT": "mg/dL", "CRE": 0.4}
{"COMPOUND": "Cc1cccc(Nc2cc(Cl)nc(SCC(=O)O)n2)c1C [PIRINIXIC ACID]", "QUANTITY_UNIT": "mg/dL", "CRE": 0.2}

---

As shown below, each of these molecules has a reported TERMINAL_BW value.
organism: Rattus norvegicus; test: Open TG-GATES - Regimen: Single; type: toxicity, organism-based, Sprague-Dawley; set-up: regimen Single, gender Male, age 6 weeks; details: in vivo, po, 0 mg/kg, 24 h, route gavage, dose level Control

{"MOLECULE": "S=C=Nc1cccc2ccccc12 [1-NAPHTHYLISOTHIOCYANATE]", "QUANTITY_UNIT": "g", "TERMINAL_BW": 234.7}
{"MOLECULE": "C=CCO", "QUANTITY_UNIT": "g", "TERMINAL_BW": 231.2}
{"MOLECULE": "CS(=O)(=O)Nc1ccc([N+](=O)[O-])cc1Oc1ccccc1 [NIMESULIDE]", "QUANTITY_UNIT": "g", "TERMINAL_BW": 217.2}
{"MOLECULE": "O=C1NC(=O)C(c2ccccc2)(c2ccccc2)N1", "QUANTITY_UNIT": "g", "TERMINAL_BW": 224.3}
{"MOLECULE": "Cc1cccc(Nc2cc(Cl)nc(SCC(=O)O)n2)c1C", "QUANTITY_UNIT": "g", "TERMINAL_BW": 212.4}
{"MOLECULE": "Cc1cnc(NC(=O)C2=C(O)c3ccccc3S(=O)(=O)N2C)s1", "QUANTITY_UNIT": "g", "TERMINAL_BW": 238.2}
